Test system: HepG2
test.details: cell viability relative to DMSO; higher = less toxic
measurement.setup: 72 h; 1000 nM
Field: label. Allowed values: True (cell viability < 90%) or False (cell viability >= 90%).

molecule | target | category.label
Cc1c(N)nc([C@H](CC(N)=O)NC[C@H](N)C(N)=O)nc1C(=O)N[C@H](C(=O)N[C@H](C)[C@@H](O)[C@H](C)C(=O)N[C@H](C(=O)NCCc1nc(-c2nc(C(=O)NCCCNCCCCN)cs2)cs1)[C@@H](C)O)[C@@H](O[C@@H]1O[C@@H](CO)[C@@H](O)[C@H](O)[C@@H]1O[C@@H]1O[C@H](CO)[C@@H](O)[C@H](OC(N)=O)[C@@H]1O)c1cnc[nH]1 [bleomycetin] | HepG2 | True
CCOc1ccn(-c2ccc(F)cc2)c(=O)c1C(=O)Nc1ccc(Oc2ccnc(N)c2Cl)c(F)c1 | HepG2 | False
CC12CCC(C(=O)N(CCCCN3CCN(c4ccccn4)CC3)C1=O)C2(C)C (stereo not drawn) [piricapiron] | HepG2 | False
NC1(C(=O)N[C@@H](CCO)c2ccc(Cl)cc2)CCN(c2ncnc3[nH]ccc23)CC1 [AZD5363] | HepG2 | True
Cc1ccccc1/N=N/c1ccc(/N=N/c2c(O)ccc3ccccc23)c(C)c1 [sudan-IV] | HepG2 | True
N=C(N)N/N=C/c1c(Cl)cccc1Cl [guanaben-acetate] | HepG2 | False
Cc1cccc(C)c1OCC(=O)N[C@@H](Cc1ccccc1)[C@@H](O)C[C@H](Cc1ccccc1)NC(=O)[C@H](C(C)C)N1CCCNC1=O [Lopinavir] | HepG2 | False
